- tested_target: UniProt O75385
- Sequence (O75385 whole entry, looked up): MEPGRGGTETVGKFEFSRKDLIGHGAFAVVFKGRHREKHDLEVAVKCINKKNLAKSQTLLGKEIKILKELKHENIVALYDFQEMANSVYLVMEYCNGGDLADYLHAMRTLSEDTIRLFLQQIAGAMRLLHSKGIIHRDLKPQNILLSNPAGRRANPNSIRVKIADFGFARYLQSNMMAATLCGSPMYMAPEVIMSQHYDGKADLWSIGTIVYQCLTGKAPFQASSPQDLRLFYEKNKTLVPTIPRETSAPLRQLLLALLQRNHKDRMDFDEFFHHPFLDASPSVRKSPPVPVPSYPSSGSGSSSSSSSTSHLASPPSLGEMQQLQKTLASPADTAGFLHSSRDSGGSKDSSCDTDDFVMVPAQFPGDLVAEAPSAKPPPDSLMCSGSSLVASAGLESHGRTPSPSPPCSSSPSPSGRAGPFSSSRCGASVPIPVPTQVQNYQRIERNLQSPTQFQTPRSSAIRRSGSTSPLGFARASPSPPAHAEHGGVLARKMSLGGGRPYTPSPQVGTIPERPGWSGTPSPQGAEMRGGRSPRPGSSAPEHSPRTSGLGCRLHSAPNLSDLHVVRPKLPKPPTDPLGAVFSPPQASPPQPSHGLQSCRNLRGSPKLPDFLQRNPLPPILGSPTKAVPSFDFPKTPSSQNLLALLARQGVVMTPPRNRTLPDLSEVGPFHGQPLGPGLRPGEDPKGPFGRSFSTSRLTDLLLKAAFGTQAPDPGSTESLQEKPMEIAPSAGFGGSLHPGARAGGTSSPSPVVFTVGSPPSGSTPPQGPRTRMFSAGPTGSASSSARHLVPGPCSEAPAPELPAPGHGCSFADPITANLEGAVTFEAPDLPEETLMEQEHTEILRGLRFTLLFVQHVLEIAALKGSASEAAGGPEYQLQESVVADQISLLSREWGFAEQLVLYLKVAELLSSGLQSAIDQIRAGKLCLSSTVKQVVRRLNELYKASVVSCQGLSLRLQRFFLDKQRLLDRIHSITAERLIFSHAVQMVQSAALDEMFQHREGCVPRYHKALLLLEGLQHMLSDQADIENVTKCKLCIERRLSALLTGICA
- method_description: KINOMEscan competition binding
- condition_notes: compound 10.0 µM
Exercise: for every item that follows, state its recorded kinase still bound, per cent of control.
Give bare numbers, in %.

Use these answered entries as a reference point.
compound	unit_string	test_value
CN1C(=O)c2ccccc2N(C)c2nc(Nc3ccc(N4CCC(O)CC4)cc3)ncc21	%	16
CN1CCN(c2ccc(C(=O)Nc3ncc4c(n3)N(C)c3ccccc3C(=O)N4C)cc2)CC1	%	78
O=C1NC(=O)/C(=C/c2c[nH]c(=O)c(-c3ccc(N4CCNCC4)nc3)c2)S1	%	21
COc1cc(N2CCN(C)CC2)ccc1Nc1ncc2c(n1)N(c1ccccc1)CCC(=O)N2	%	24
COc1cc(N2CCN(C)CC2)ccc1Nc1ncc2c(n1)N(C)c1ccccc1N(C)C2=O	%	100
CS(=O)(=O)Nc1ccc(-c2ncc(/C=C3\SC(=N)NC3=O)s2)cc1	%	33

For every record below, what is its kinase still bound, per cent of control?
1. N=C1NC(=O)/C(=C/c2c[nH]c(=O)c(-c3ccc(N4CCNCC4)nc3)c2)S1
2. COc1cc(N2CCN(C)CC2)ccc1Nc1ncc2c(n1)N(C1CCCC1)C(C)CC(=O)N2C (stereo not drawn)

[33, 19]

====

Exercise: for every item that follows, state its recorded kinase still bound, per cent of control.
- tested_target: UniProt Q9Y6E0
- Sequence (Q9Y6E0 whole entry, looked up): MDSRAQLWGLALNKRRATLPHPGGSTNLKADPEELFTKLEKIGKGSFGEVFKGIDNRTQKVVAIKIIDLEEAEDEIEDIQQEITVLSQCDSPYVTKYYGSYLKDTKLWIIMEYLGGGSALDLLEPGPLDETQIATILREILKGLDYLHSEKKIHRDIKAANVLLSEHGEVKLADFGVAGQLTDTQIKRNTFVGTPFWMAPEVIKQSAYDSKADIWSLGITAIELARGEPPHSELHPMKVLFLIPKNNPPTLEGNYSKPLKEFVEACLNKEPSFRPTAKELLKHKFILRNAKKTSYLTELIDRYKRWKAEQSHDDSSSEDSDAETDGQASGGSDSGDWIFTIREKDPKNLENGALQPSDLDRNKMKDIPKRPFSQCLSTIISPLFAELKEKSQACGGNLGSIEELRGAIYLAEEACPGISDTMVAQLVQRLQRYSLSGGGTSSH
- method_description: KINOMEscan competition binding
- condition_notes: compound 10.0 µM

Use these answered entries as a reference point.
COc1cc(N2CCN(C)CC2)ccc1Nc1ncc2c(n1)N(C)c1ccccc1N(C)C2=O 100%
N=C1NC(=O)/C(=C/c2ccc(-c3csc4ccccc34)o2)S1 18%
O=C1NC(=O)/C(=C/c2c[nH]c(=O)c(-c3ccc(N4CCNCC4)nc3)c2)S1 71%
CCN1CCN(Cc2cc(NC(=O)c3cccc4cc(-c5ccc(/C=C6\SC(=O)NC6=O)o5)ccc34)cc(C(F)(F)F)c2)CC1 25%
CN1C(=O)c2ccccc2N(C)c2nc(NS(=O)(=O)c3ccc(N)cc3)ncc21 100%
O=C1NC(=O)/C(=C/c2ccc(-c3ccc4c(C(=O)Nc5cccc(C(F)(F)F)c5)cccc4c3)o2)S1 29%
N=C1NC(=O)/C(=C/c2ccc(-c3ccc4c(C(=O)Nc5ccc(N6CCNCC6)cc5)cccc4c3)o2)S1 23%
N=C1NC(=O)/C(=C/c2ccc(-c3cncc4ccccc34)o2)S1 16%

For every record below, what is its kinase still bound, per cent of control?
1. COc1cc(N2CCC(O)CC2)ccc1Nc1ncc2c(n1)N1CCc3cccc(c31)C(=O)N2C
2. COc1cc(N2CCN(C)CC2)ccc1Nc1ncc2c(n1)N(C)c1sccc1C(=O)N2C
3. CN1C(=O)[C@H]2CCC[C@H]2N(C2CCCC2)c2nc(Nc3ccc(C(N)=O)cc3)ncc21
4. CN1CCN(c2ccc(C(=O)Nc3ncc4c(n3)N(C)c3ccccc3C(=O)N4C)cc2)CC1
5. N=C1NC(=O)/C(=C/c2ccc(-c3cccc4cc[nH]c34)o2)S1
6. O=C1NC(=S)S/C1=C\c1ccc(-c2cncc3ccccc23)o1
7. COc1cc(N2CCN(C)CC2)ccc1Nc1ncc2c(n1)Nc1ccccc1NC2=O

["84%", "72%", "16%", "100%", "27%", "12%", "95%"]

For every record below, what is its kinase still bound, per cent of control?
1. N=C1NC(=O)/C(=C/c2ccc(-c3ccc(C(=O)Nc4ccc(N5CCNCC5)cc4)cc3O)o2)S1
2. CN1C(=O)c2ccccc2N(C)c2nc(Nc3ccc(N4CCC(O)CC4)cc3)ncc21

["25%", "82%"]

====

- tested_target: EPHB2 (human)
- method_description: KINOMEscan competition binding
- condition_notes: compound 10.0 µM
experimental_endpoint: kinase still bound, per cent of control (%)
One number for each entry, in %.

Use these answered entries as a reference point.
CN1C(=O)c2ccccc2N(C)c2nc(Nc3ccc(N4CCC(O)CC4)cc3)ncc21 100
COc1cc(N2CCN(C)CC2)ccc1Nc1ncc2c(n1)N(C)c1sccc1C(=O)N2C 100
CN1C(=O)c2ccccc2N(C)c2nc(NS(=O)(=O)c3ccc(N)cc3)ncc21 94

For every record below, what is its kinase still bound, per cent of control?
1. CN1CCN(c2ccc(C(=O)Nc3ncc4c(n3)N(C)c3ccccc3C(=O)N4C)cc2)CC1
2. COc1cc(N2CCN(C)CC2)ccc1Nc1ncc2c(n1)N(C)c1ccccc1N(C)C2=O
3. COc1cc(N2CCC(O)CC2)ccc1Nc1ncc2c(n1)N1CCc3cccc(c31)C(=O)N2C
4. COc1cc(N2CCN(C)CC2)ccc1Nc1ncc2c(n1)Nc1ccccc1NC2=O
5. O=C1NC(=O)/C(=C/c2c[nH]c(=O)c(-c3ccc(N4CCNCC4)nc3)c2)S1

1: 91; 2: 68; 3: 94; 4: 82; 5: 71

====

Exercise: for every item that follows, state its recorded kinase still bound, per cent of control.
- tested_target: SRPK3 (human) (UniProt Q9UPE1)
- Sequence (Q9UPE1 whole entry, looked up): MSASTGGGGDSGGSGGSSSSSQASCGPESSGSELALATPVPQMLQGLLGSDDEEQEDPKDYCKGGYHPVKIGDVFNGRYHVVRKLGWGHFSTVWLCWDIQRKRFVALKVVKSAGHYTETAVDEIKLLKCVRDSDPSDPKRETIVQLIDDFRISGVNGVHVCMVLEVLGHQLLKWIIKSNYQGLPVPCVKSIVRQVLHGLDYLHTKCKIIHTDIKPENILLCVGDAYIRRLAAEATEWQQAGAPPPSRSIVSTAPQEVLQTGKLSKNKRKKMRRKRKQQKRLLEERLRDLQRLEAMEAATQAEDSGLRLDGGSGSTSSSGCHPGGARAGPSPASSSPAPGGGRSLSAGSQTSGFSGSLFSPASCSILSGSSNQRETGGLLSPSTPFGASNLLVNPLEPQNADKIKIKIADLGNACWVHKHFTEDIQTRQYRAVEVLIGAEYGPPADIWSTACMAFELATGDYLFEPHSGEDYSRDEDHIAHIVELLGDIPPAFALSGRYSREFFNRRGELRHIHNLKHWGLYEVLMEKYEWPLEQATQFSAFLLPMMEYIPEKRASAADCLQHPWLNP
- method_description: KINOMEscan competition binding
- condition_notes: compound 10.0 µM
Answers are plain numbers, in %.

N=C1NC(=O)/C(=C/c2c[nH]c(=O)c(-c3ccc(S(N)(=O)=O)cc3)c2)S1 33

For every record below, what is its kinase still bound, per cent of control?
1. CN1C(=O)[C@H]2CCC[C@H]2N(C2CCCC2)c2nc(Nc3ccc4ncccc4c3)ncc21
2. CS(=O)(=O)Nc1ccc(-c2cncc(/C=C3\SC(=N)NC3=O)c2)cc1
3. CS(=O)(=O)Nc1ccc(-c2cc(/C=C3\SC(=N)NC3=O)c[nH]c2=O)cc1
4. N=C1NC(=O)/C(=C/c2ccc(-c3cnc4ccccc4c3)o2)S1
5. NS(=O)(=O)c1ccc(-c2ccc(/C=C3\C(=O)Nc4ccccc43)o2)cc1
6. N=C1NC(=O)/C(=C/c2c[nH]c(=O)c(-c3ccc(N4CCNCC4)nc3)c2)S1
7. COc1cc(N2CCN(C)CC2)ccc1Nc1ncc2c(n1)Nc1ccccc1NC2=O

1. 20
2. 34
3. 14
4. 22
5. 26
6. 23
7. 76

For every record below, what is its kinase still bound, per cent of control?
1. O=C1NC(=O)/C(=C/c2c[nH]c(=O)c(-c3ccc(N4CCNCC4)nc3)c2)S1
2. CN1C(=O)c2ccccc2N(C)c2nc(Nc3ccc(N4CCC(O)CC4)cc3)ncc21

6
84

====

Exercise: for every item that follows, state its recorded kinase still bound, per cent of control.
- tested_target: DCLK2 (human) (UniProt Q8N568)
- Sequence (Q8N568 whole entry, looked up): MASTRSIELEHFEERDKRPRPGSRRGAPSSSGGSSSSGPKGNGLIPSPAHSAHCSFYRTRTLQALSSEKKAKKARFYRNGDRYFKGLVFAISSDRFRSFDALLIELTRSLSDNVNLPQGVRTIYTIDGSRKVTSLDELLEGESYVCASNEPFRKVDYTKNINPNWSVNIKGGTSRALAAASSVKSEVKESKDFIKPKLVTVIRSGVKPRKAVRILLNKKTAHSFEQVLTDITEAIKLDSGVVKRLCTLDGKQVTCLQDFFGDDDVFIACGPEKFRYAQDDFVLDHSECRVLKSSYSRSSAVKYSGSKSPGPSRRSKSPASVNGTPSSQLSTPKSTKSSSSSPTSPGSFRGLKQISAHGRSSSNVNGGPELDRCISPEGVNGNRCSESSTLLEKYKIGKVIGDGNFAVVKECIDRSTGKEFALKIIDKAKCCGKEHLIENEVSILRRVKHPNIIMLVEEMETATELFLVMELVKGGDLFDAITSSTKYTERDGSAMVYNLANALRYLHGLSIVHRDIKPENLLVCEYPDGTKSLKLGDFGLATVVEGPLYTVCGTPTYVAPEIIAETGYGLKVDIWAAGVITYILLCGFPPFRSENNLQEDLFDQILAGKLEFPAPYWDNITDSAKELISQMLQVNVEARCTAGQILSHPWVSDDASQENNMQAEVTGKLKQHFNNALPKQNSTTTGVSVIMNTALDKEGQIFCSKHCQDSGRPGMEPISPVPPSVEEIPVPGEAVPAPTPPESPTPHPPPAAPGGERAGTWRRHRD
- method_description: KINOMEscan competition binding
- condition_notes: compound 10.0 µM
Please format your answer as a value with the unit trailing.

For every record below, what is its kinase still bound, per cent of control?
1. CN1CCN(c2ccc(C(=O)Nc3ncc4c(n3)N(C)c3ccccc3C(=O)N4C)cc2)CC1
2. CC(C)Oc1cc(N2CCN(C)CC2)ccc1Nc1ncc2c(n1)N(C)c1ccccc1C(=O)N2
3. COc1cc(N2CCN(C)CC2)ccc1Nc1ncc2c(n1)N(C)c1ccccc1C(=O)N2
4. CN1C(=O)c2ccccc2N(C)c2nc(Nc3ccc(N4CCC(O)CC4)cc3)ncc21

1: 22%; 2: 5.3%; 3: 1.4%; 4: 0.6%

====

- tested_target: PIP5K1A (human)
- method_description: KINOMEscan competition binding
- condition_notes: compound 10.0 µM
experimental_endpoint: kinase still bound, per cent of control (%)
Answers are plain numbers, in %.

Use these answered entries as a reference point.
COc1cc(N2CCN(C)CC2)ccc1Nc1ncc2c(n1)N(C)c1ccccc1N(C)C2=O 95
O=C1NC(=S)S/C1=C\c1ccc(-c2cncc3ccccc23)o1 17
COc1cc(N2CCN(C)CC2)ccc1Nc1ncc2c(n1)N(c1ccccc1)CCC(=O)N2 34

For every record below, what is its kinase still bound, per cent of control?
1. CN1C(=O)[C@H]2CCC[C@H]2N(C2CCCC2)c2nc(Nc3ccc(C(N)=O)cc3)ncc21
2. CC(C)Oc1cc(N2CCN(C)CC2)ccc1Nc1ncc2c(n1)N(C)c1ccccc1C(=O)N2
3. COc1cc(N2CCN(C)CC2)ccc1Nc1ncc2c(n1)Nc1ccccc1NC2=O
4. CN1C(=O)c2ccccc2N(C)c2nc(Nc3ccc(N4CCC(O)CC4)cn3)ncc21
5. COc1cc(N2CCC(O)CC2)ccc1Nc1ncc2c(n1)N1CCc3cccc(c31)C(=O)N2C

[29, 22, 47, 26, 91]

I have this compound here, COc1cc(N2CCN(C)CC2)ccc1Nc1ncc2c(n1)N1CCC[C@H]1CC(=O)N2 , and I need its recorded kinase still bound, per cent of control. 11

====

- tested_target: GAK (human)
- method_description: KINOMEscan competition binding
- condition_notes: compound 10.0 µM
// boundary case: kinase still bound, per cent of control equal to 6% maps to Not satisfied; strictly smaller maps to Satisfied

compound	group_label
CSC1=NC(=O)/C(=C/c2ccc(-c3ccc(S(N)(=O)=O)cc3)o2)S1	Not satisfied

Dear colleague, could you confirm whether kinase still bound, per cent of control of COc1cc(N2CCC(O)CC2)ccc1Nc1ncc2c(n1)N1CCc3cccc(c31)C(=O)N2C falls below 6%? Thanks. Not satisfied

Now the same for COc1cc(C(=O)NC2CCN(C)CC2)ccc1Nc1ncc2c(n1)N(C1CCCC1)CCC(=O)N2C Satisfied

Now the same for CS(=O)(=O)Nc1ccc(-c2ccc(/C=C3\SC(=N)NC3=O)o2)cc1 Not satisfied

Now the same for COc1cc(N(C)CCCO)ccc1Nc1ncc2c(n1)N(C1CCCC1)CCC(=O)N2C Satisfied

Now the same for CCN(CC)C1CCN(c2ccc(Nc3ncc4c(n3)N3CCCC3C=CN4C)c(OC(C)C)c2)CC1 (centres undefined) Not satisfied

Now the same for COc1cc(N2CCN(C)CC2)ccc1Nc1ncc2c(n1)N(C)c1ccccc1C(=O)N2C Not satisfied
